Recorded values, source PubChem BioAssay (NCI).

Test system: HCT-15 colon
Experimental Protocol: NCI-60 one-dose screen, 48 h
Test Settings: 10 µM
This is part of a sample that, as a whole, favours compounds with a hit. Of some 83,000 tested, about 20% had one in any assay. Activity calls are given as the source filed them. Rule for the calls: active = growth percent below 10; inactive = the rest.
Your answer must be one of the following: t = active, f = inactive

Example entries and their recorded answers appear below.
O=C(CCCCC(=O)Nc1ccc2c(c1)/C(=C/c1ccc[nH]1)C(=O)N2)NO
f
CSC1=NCCCC1
f
COc1ccc2c(c1OC)O/C(=C\c1ncc([N+](=O)[O-])n1C)C2=O
t
O=C(C[n+]1ccccc1)c1ccc2ccccc2c1
f
Cc1ccc(Nc2nnc(-c3cc(-c4ccncc4)n(-c4ccccc4)n3)s2)cc1
t

Task: Any idea what this test logged for `COc1ccc(-c2nn(-c3cccc(NC(=O)Nc4cccc(C(F)(F)F)c4)c3)cc2-c2ccncc2)cc1Cl` ?
Result: f

Task: Any idea what this test logged for `COc1ccc(-c2ccc(-c3ccc(C(=N)N)cn3)o2)cc1` ?
Result: f

Task: Any idea what this test logged for `O=[N+]([O-])c1ccc(Oc2cc(Cl)c(Cl)cc2Cl)c(C(F)(F)F)c1` ?
Result: f

Task: Any idea what this test logged for `COc1cc(Cl)cc(-c2nn(-c3cccc(NC(=O)c4ccc(Cl)c(Cl)c4)c3)cc2-c2ccncc2)c1` ?
Result: f

Task: Any idea what this test logged for `NC1=NC(=O)C(c2ccccc2)(c2ccccc2)S1` ?
Result: f

Task: Any idea what this test logged for CCOC(=O)N1C=CC2C=CC1C1C=CC=CC2N1C(=O)OCC (stereo not given) ?
Result: f

Task: Any idea what this test logged for `COc1ccc(-c2nnc(-c3c(-c4ccccc4)nc4ncccn34)o2)cc1OC` ?
Result: f

Task: Any idea what this test logged for CC1(C)OC2=C(CC1Br)C(=O)C(=O)c1ccccc12 (stereo not given) ?
Result: t

Task: Any idea what this test logged for `COc1ccc(/C=C/C(C)=N/OCC(=O)O)cc1` ?
Result: f

Task: Any idea what this test logged for `COc1ccc2c(c1)C(=O)c1c-2c(OCCN(C)C)nc2ccccc12` ?
Result: f

Task: Any idea what this test logged for `CS(=O)(=O)Nc1cccc(-c2cc(-c3ccccc3Cl)c(C#N)c(N)n2)c1` ?
Result: f

Task: Any idea what this test logged for `N=C(N)c1ccc(-c2ccc(-c3ccccc3)o2)nc1` ?
Result: f

Task: Any idea what this test logged for `CC(=O)N(C)c1ccc(Nc2ccc(Nc3ccc(N(C)C(C)=O)cc3)c3c2C(=O)c2ccccc2C3=O)cc1` ?
Result: f

Task: Any idea what this test logged for `CCN(CC)CCC(=O)Nc1cccc2c1C(=O)c1c(c(O)c3ccccc3c1O)C2=O` ?
Result: f

Task: Any idea what this test logged for `Cc1ncc(-c2ccoc2)c(NC2CCCCCC2)n1` ?
Result: f
